Target: Cbl-b (Homo sapiens)
Experiment: Cbl-b activity assay (Cbl-b inhibition assay), TR-FRET of Cbl-b interaction with UbcH5B-Ub
Format: biochemical
Conditions: assay buffer with 100 mM NaCl, 60 nM Src kinase; read-out: Cbl-b activity IC50
Property label: IC50

Previously resolved entries follow.
C[C@H](Cc1nncn1C)c1cc(NCCO)nc(N2Cc3c(cccc3C(F)(F)F)C2=O)c1; 100 to 300 nM
Cn1cnnc1CC1(c2cccc(N3Cc4c(cc(C(F)(F)CO)cc4C(F)(F)F)C3=O)c2)COC1; < 100 nM
Cn1cnnc1OC1(c2cccc(N3Cc4c(cc(CN5CCC(F)CC5)cc4C(F)(F)F)C3=O)c2)COC1; 100 to 300 nM

Moving on to the next compound.
Request: // IC50 lookup, key: C[C@H](Cc1nncn1C)c1cccc(NC(=O)c2coc(C(F)(F)F)n2)c1
Response: 301 to 1000 nM

* * *

Target: UniProtKB Q13191
Test: Cbl-b activity assay (Cbl-b inhibition assay), TR-FRET of Cbl-b interaction with UbcH5B-Ub
Assay type: biochemical
Conditions: assay buffer with 100 mM NaCl, 60 nM Src kinase; read-out: Cbl-b activity IC50
This section presents compounds with their documented IC50 values.

Observe how each entry below is paired with its result.
C[C@H](Cc1nncn1C)c1cccc(NC(=O)c2cc(C(=O)N3CC[C@H](O)C3)ccc2F)c1 [Compound 254]; 1 to 3 µM
CC(c1cc2c(c(C3CC3)n1)CN(c1cccc(C3(Cc4nncn4C)COC3)c1)C2=O)N1CCCCC1 (centres unmarked) [Example 587]; < 0.1 µM
C[C@H](Sc1nncn1C)c1cccc(NC(=O)c2cc(Cl)cc(C(F)(F)F)n2)c1 [Compound 68]; 0.1 to 0.3 µM
Cc1cc(C(=O)Nc2cccc([C@@H](C)Cc3nncn3C)c2)nc(C2CC2)n1 [Compound 325]; 0.1 to 0.3 µM
Cn1cnnc1C(F)(F)[C@](C)(F)c1cccc(N2Cc3c(cc(CN4CC[C@@H](F)C4)cc3C(F)(F)F)C2=O)c1 [Compound 450]; < 0.1 µM
C[C@H](c1cc2c(c(C(F)(F)F)c1)CN(c1cccc(C3([C@@H](F)c4nncn4C)COC3)c1)C2=O)N1CCC2(CC2)C1 (stereo in doubt) [Compound 515]; < 0.1 µM
C[C@H](Sc1nncn1C)c1cccc(NC(=O)c2cccc(-c3ccnn3C)c2)c1 [Compound 45]; 3 to 10 µM

Request: // lookup IC50 for Cn1cnnc1CC(c1cccc(N2Cc3c(cccc3C(F)(F)F)C2=O)c1)C(F)(F)F (centres unmarked) [Compound 289]
Response: 0.301 to 1 µM

* * *

Molecular target: Cbl-b (Homo sapiens, UniProt Q13191)
Sequence (Q13191 36-427): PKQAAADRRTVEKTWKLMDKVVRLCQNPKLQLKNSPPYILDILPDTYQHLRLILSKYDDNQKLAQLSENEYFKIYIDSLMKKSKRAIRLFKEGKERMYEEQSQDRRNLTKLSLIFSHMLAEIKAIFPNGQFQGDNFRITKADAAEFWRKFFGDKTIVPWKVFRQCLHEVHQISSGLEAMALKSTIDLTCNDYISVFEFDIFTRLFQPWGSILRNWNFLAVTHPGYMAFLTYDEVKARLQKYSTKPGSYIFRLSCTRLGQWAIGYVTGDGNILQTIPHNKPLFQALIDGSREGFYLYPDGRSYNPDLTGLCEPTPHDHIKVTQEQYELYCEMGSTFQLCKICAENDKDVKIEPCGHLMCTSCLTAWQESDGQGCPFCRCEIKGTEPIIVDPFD
Assay: Cbl-b inhibition assay (Cbl-b activity assay, FRET, Biological Example 1; 100 mM NaCl, 60 nM Src kinase)
Type: biochemical
Details: upper bound stated in text lists; read-out: IC50 values in the Cbl-b inhibition assay of Biological Example 1
# IC50 per entry

Request: Dear colleague, I am looking for the recorded IC50 of the following molecule: Cn1cnnc1[C@H](F)C1(c2cccc(N3Cc4c(cc(CN5CCCC5)cc4C(F)(F)F)C3=O)c2)COC1 [Example 673b]
Response: ≤ 100 nM

Request: What measured IC50 goes with Cn1cnnc1CC1(c2cccc(N3Cc4c(cc(CN5CCC(C(F)F)CC5)cc4C(F)(F)F)C3=O)c2)COC1 [Example 643] ?
Response: ≤ 100 nM

Request: Entry CC(Sc1nncn1C)c1cncc(NC(=O)c2cccc(C(F)(F)F)n2)c1 (stereo not shown) [Compound 127] has what IC50?
Response: ≤ 10000 nM

Request: Give the measured IC50 of Cn1cnnc1CC1(c2cccc(N3Cc4c(cc(OC(F)F)cc4C(F)(F)F)C3=O)c2)COC1 [Example 595] .
Response: ≤ 100 nM

Cited source for all entries: patent US20220324835A1
